Origin of the recorded values: ChEMBL document CHEMBL5058577

- Test system: U2OS
- ASSAY_PROTOCOL: Multiplex assay against U2OS
- Type: toxicity, cell-based
- PROTOCOL_CONDITIONS: human, 48 h, 10 µM, compound concentration 10 uM, replicate 1
MEASURED_ATTRIBUTE: Population Healthy Nuclei (%)
Answer format: numeric, % implied, no suffix.

Lookup: I would be grateful if you could share the reported Population Healthy Nuclei (%) for C[C@@H]1CC(=O)Nc2cccc(-c3ccc4c(c3)c(-c3cnn(C)c3)nn4C)c2N1 .
Found: 65

Lookup: Could you share which Population Healthy Nuclei (%) value was measured for O=c1nc2[nH]c3ccccc3nc-2c(=O)[nH]1 [ALLOXAZINE] ?
Found: 66

Lookup: Need Population Healthy Nuclei (%), item Cc1cc(=O)n(C)c2cc(N3C(=O)CC[C@H](NS(=O)(=O)CC(C)C)[C@H]3c3ccc(Cl)cc3)ccc12
Found: 51

Lookup: Suppose we examine the compound Cc1cc(O)c(-c2ccc([C@@H](C)CN(C)C)cc2)c2c1[nH]c(=O)c1sccc12 ; what Population Healthy Nuclei (%) value has been reported?
Found: 17

Lookup: Reported Population Healthy Nuclei (%), compound OCCCNc1cc(-c2ccnc(Nc3cccc(Cl)c3)n2)ccn1 : ____
Found: 31

Lookup: Consider the compound shown here: COc1c(Nc2ccc(S(C)(=O)=O)nc2C)ncnc1OC1CCN(C(=O)OC(C)C)CC1 [ADP-597] What is its recorded Population Healthy Nuclei (%)?
Found: 62

Lookup: Reported Population Healthy Nuclei (%) for CCC(=O)OCC(=O)[C@@]1(OC(=O)CC)[C@@H](C)C[C@H]2[C@@H]3CCC4=CC(=O)C=C[C@]4(C)[C@@]3(Cl)[C@@H](O)C[C@@]21C [BECLOMETHASONE DIPROPIONATE] : what is it?
Found: 47

Lookup: What does the data say about its Population Healthy Nuclei (%)? Entry: COc1cc2nc(N3CCN(C(=O)c4ccco4)CC3)nc(N)c2cc1OC.Cl [PRAZOSIN HYDROCHLORIDE]
Found: 71
